Target: HLA-A*0201 loaded with the Carcinoembryonic antigen (CEA)-derived … peptide (biotinylated on the C-terminal biotinylation tag)
Test: SPR (Biacore), Example 4
experimental.endpoint: koff

Answered cases to consult:
Query: Fill in reported koff for this entry: SEQ ID NO 79 (receptor) MHLPKPTLWAEPGSVITMDQPVTLRCQGGQETQEYRLYREKKTAPWITRIPQELVKKGQFPIPSITWEHAGRYRCYYGSDTSQWSASSDPLELVVTGVYIKPTLSAQPSPVVNSGGNVTLQCDSQVAFDGFILCKEGEDEHPQCLNSQPHARGSSRAIFSVGPVSPSRRWWYRCYAYDSNSPYEWSDPSDLLELDVDG
Reply: ≤ 2 s⁻¹

Query: Fill in reported koff for this entry: SEQ ID NO 44 (receptor) MGHLPKPTLWAEPGSVITQGSPVTLRCQGGQETQEYRLYREKKTAPWITRIPQELVKKGQFPIPSVTWEHAGRYRCYYGSDTAGRSESSDPLELVVTGVYIKPTLSAQPSPVVNSGGNVTLQCDSQVAFDGFILCKEGEDEHPQCLNSQPHARGSSRAIFSVGPVSPSRRWWYRCYAYDSNSPYEWSLPSDLLELLVL
Reply: ≤ 2 s⁻¹

Then there is this binder:
Query: Fill in reported koff for this entry: SEQ ID NO 77 (receptor) MHLPKPTLWAEPGSVITMDQPVTLRCQGGQETQEYRLYREKKTAPWITRIPQELVKKGQFPIPSITWEHAGRYRCYYGSDTSQWSASSDPLELVVTGVYIKPTLSAQPSPVVNSGGNVTLQCDSQVAFDGFILCKEGEDEHPQCDNSQPHARGSSRAIFSVGPVSPSRRWWYRCYAYDSNSPYEWSLPSDLLELDVDG
Reply: ≤ 2 s⁻¹
